Hello, the source for this data is ChEMBL document CHEMBL1201862, in case you need it.

# assayed target: Protein RecA (Mycobacterium tuberculosis)
# assay protocol: Fluorescence Cell-Free Homogeneous Dose Retest to Identify Inhibitors of RecA-Intein Splicing Activity. [Related pubchem assays (depositor defined):AID2097, AID2223, AID489010, AID492950]
# Assay type: functional
Activity calls are given as the source filed them.
Recorded EC50, one value per entry.

Recorded EC50, per entry:
molecule: CCCCCCCCCCOC(=O)C[n+]1c(COc2cccc(C)c2)n(C)c2ccccc21
meas value: 9.88 µM (active)

molecule: CC(C)CC(NC(=O)CCl)c1ccccc1 (stereo not given)
meas value: 4.29 µM (active)

molecule: O=C1c2ccccc2-c2c1nc1c([n+]2[O-])CCCC1
meas value: 20.1 µM (active)

molecule: O=C(c1[nH]ncc1-c1ccc(Cl)cc1)C1CO1 (stereo not given)
meas value: 20.9 µM (active)

Let's switch to this molecule now.
Input: Give the observed EC50 of COc1ccc(NC(=O)CSc2c3c(nc4cc(Cl)ccc24)CCCC3)cc1OC for Protein RecA (Mycobacterium tuberculosis).
Output: 3.1 µM (active)

====

# assay protocol: Luminescence Cell-Based Dose Retest to Confirm Inhibitors of Cancer Stem Cells. [Related pubchem assays (depositor defined):AID2717, AID2721]
# Type: functional
# experimental context: Homo sapiens
The source made the active and inactive calls.
Recorded AC50, one value per entry.

Recorded AC50, per entry:
compound: CCCCCCSc1cc(-c2nc3cc(C)ccn3c2NCCCC)ccc1OC
AC50: 7.54 µM (active)
--
compound: O=C(CSc1nnc(-c2ccccc2O)n1Cc1ccccc1)NNC(=O)c1ccccc1O
AC50: 7.6 µM (active)
--
compound: OCCN(CCO)CC(O)COc1ccc(C23CC4CC(CC(C4)C2)C3)cc1 (centres undefined)
AC50: 1.05 µM (active)
--
compound: O=C(NC(c1ccc(Cl)cc1)c1c(O)ccc2ccccc12)c1ccccc1 (centres undefined)
AC50: 1.23 µM (active)
--
compound: Cc1ccc(NC(S)=NC(NC(=O)Cc2cccc3ccccc23)C(Cl)(Cl)Cl)cc1 (centres undefined)
AC50: 2.18 µM (active)

Input: For the compound CCOC(=O)c1cnc(-n2nc(C)cc2C)nc1NNc1cc(C)nc(-c2ccccc2)n1 , give its measured AC50 value.
Output: 1.74 µM (active)

Input: For the compound CCCc1nc(NC2CCCCC2)c(C#N)c2c1COC(C)(C)C2 , give its measured AC50 value.
Output: 6.71 µM (active)

Input: For the compound CC1CCCCC1NC(=O)/C(C#N)=C/c1ccccc1F (centres undefined) , give its measured AC50 value.
Output: 5.53 µM (active)

Input: For the compound CN(C)S(=O)(=O)Oc1cccc(C(=O)Nc2ccc(Cl)c(Cl)c2)c1 , give its measured AC50 value.
Output: 8.64 µM (active)

====

Recorded EC50, one value per entry.
# assay protocol: DRD fibroblast viability loss – cell-based, non-viral oncogenic, luminescence, dose response (AID 1934)
# Assay type: functional
# experimental context: Homo sapiens
Active and inactive are the calls of the source.

Recorded EC50, per entry:
compound string: Cn1c(N/N=C/c2cc3ccccc3nc2Cl)nc2ccccc21
EC50: 25.7 µM (active)
--
compound string: O=C(Nc1ccc(S(=O)(=O)N2CCCCC2)cc1)c1ccc(CN2CCc3ccccc3C2)cc1
EC50: 22 µM (active)
--
compound string: C/C(=N/N=C/c1ccc(N(C)C)cc1)c1ccccc1
EC50: 17.1 µM (active)

Input: For the molecule COc1ccccc1-c1nc(-c2ccccn2)no1 , give its measured EC50 value.
Output: 7.2 µM (active)

====

# assayed target: Disintegrin and metalloproteinase domain-containing protein 17 (Homo sapiens)
# Sequence (P78536 whole entry, the tested form may be a part): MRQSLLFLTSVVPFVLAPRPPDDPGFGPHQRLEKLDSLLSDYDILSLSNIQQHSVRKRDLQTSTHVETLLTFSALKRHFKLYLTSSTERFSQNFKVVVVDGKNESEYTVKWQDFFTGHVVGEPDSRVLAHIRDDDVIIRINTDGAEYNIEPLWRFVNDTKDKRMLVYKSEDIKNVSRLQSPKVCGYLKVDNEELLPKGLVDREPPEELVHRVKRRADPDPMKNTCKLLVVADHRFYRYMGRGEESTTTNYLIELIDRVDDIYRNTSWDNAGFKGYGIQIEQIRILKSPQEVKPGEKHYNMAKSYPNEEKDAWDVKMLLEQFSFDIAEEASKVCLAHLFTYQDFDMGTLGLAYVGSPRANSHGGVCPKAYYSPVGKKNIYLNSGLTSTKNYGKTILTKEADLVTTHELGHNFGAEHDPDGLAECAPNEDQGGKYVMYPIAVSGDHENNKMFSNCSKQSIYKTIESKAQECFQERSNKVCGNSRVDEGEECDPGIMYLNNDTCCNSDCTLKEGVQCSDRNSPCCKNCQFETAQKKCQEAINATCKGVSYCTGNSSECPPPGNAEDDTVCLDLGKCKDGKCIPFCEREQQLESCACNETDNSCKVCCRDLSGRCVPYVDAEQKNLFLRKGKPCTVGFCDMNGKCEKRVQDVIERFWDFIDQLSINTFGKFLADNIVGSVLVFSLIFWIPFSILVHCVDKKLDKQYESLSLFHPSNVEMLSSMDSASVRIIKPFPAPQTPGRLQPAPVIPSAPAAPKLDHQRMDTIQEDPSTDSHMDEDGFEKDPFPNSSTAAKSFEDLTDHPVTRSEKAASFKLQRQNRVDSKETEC
# assay protocol: inhibition of ADAM17 substrate cleavage – biochemical, quenched FRET substrate, counter-screen for ADAM10 exosite inhibitor project, dose response (AID 743253)
Activity calls are given as the source filed them.
property label: IC50

Recorded IC50, per entry:
compound: CC(C)(C)OC(=O)NCCCC[C@H](NC(=O)c1[nH]cnc1C(=O)NC(c1ccccc1)c1ccccc1)C(=O)OC(C)(C)C
IC50: > 69.5 µM (inactive)
//
compound: O=C1CC(N(CCc2ccccc2)C(=S)Nc2cc(Cl)ccc2Cl)C(=O)N1c1c(Cl)cccc1Cl (centres undefined)
IC50: > 69.5 µM (inactive)
//
compound: O=C(c1cccs1)N1CCc2c([nH]c3ccccc23)C1c1ccc(Cl)cc1 (centres undefined)
IC50: > 69.5 µM (inactive)

Let's switch to this compound now.
Input: Give the observed IC50 of CCC1CO/C(=C(\C(Cl)=C(Cl)Cl)[N+](=O)[O-])N1 (centres undefined) for Disintegrin and metalloproteinase domain-containing protein 17 (Homo sapiens).
Output: 27.9 µM (inactive)

====

# assay protocol: cells
# Type: functional, cell-based
Activity calls are given as the source filed them.
Recorded EC50, one value per entry.

Recorded EC50, per entry:
compound: Cc1cc(Cl)n2c(nc3cc(F)c(F)cc32)c1C#N
property label: EC50
meas value: > 350 µM (not active)
//
compound: O=C(CSc1nc(O)c2ccccc2n1)Nc1ccc(Br)cc1
property label: EC50
meas value: > 350 µM (not active)
//
compound: CC(C)(C)c1cc(C(=O)N2CCN(c3ncccn3)CC2)ccn1
property label: EC50
meas value: > 350 µM (not active)
//
compound: Cc1cc(OC(C)C(=O)NNC(=O)Nc2ccc(F)cc2F)cc(C)c1Cl (stereo unspecified)
property label: EC50
meas value: > 350 µM (not active)
//
compound: CC(=O)Nc1nc2ccccc2n1CCOc1ccccc1Cl
property label: EC50
meas value: > 350 µM (not active)

Input: For the compound CC(=O)NC(c1cccs1)c1cc([N+](=O)[O-])c2cccnc2c1O (stereo unspecified) , give its measured EC50 value.
Output: 51.5 µM (active)

====

# assayed target: DNA dC->dU-editing enzyme APOBEC-3G (Homo sapiens, UniProt Q9HC16)
# Sequence (Q9HC16 whole entry): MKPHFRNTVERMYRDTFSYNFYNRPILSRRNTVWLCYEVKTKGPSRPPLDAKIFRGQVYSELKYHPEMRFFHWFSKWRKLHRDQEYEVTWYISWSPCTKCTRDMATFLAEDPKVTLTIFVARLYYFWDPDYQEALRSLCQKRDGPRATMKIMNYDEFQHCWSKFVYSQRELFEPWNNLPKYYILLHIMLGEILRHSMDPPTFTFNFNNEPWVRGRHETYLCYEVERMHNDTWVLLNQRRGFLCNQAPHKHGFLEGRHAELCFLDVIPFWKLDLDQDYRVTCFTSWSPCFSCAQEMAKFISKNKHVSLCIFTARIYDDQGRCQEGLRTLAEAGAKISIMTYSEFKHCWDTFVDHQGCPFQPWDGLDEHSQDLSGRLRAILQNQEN
# assay protocol: Dose Response confirmation of small molecule APOBEC3G DNA Deaminase Inhibitors via a fluorescence-based single-stranded DNA deaminase assay. [Related pubchem assays (depositor defined):AID493012, AID493028]
# Assay type: functional
Calls of active or inactive are those of the source.
Recorded IC50, one value per entry.

compound string: CCOC(=O)/C=C/C(=O)Nc1cccc([N+](=O)[O-])c1
IC50: 11 µM (active)

compound string: Sc1nnc(-c2ccco2)[nH]1
IC50: 12 µM (active)

compound string: O=C(NCCCN1CCOCC1)c1sc2cc([N+](=O)[O-])ccc2c1Cl
IC50: 6.34 µM (active)

compound string: Cc1ccsc1/C=N/n1c(S)nnc1-c1ccccn1
IC50: 4.89 µM (active)

Input: For the molecule CCOC(=O)Cc1csc(-n2sc3ccccc3c2=O)n1 , give its measured IC50 value.
Output: 12.6 µM (active)

====

# assay protocol: Luminescence Cell-Based Dose Response HTS to Identify Activators of Luciferase Translation or Activity in H4 […] Cells. [Related pubchem assays: 1829 (Project Summary), 1814 (Primary HTS)]
# Assay type: functional
Activity calls are given as the source filed them.
property label: EC50

Recorded EC50, per entry:
compound: Cc1ccc(Cn2nc(-c3ccccc3)nc2-c2ccccc2)cc1
EC50: 20 µM (active)

compound: COc1ccc(/C=C2\SC(=O)N(CCNC(=O)C3CCN(S(=O)(=O)c4cccs4)CC3)C2=O)cc1
EC50: 36.7 µM (active)

compound: CCCCCn1cnc2sc(-c3ccccc3)cc2c1=O
EC50: 2.43 µM (active)

Let's switch to this compound now.
Input: For the compound O=C(c1cnn2c1NC(c1ccco1)CC2C(F)(F)F)N1CCN(c2cccc(Cl)c2)CC1 (centres undefined) , give its measured EC50 value.
Output: > 120 µM (not active)

====

# assayed target: RNA-binding protein pos-1 (Caenorhabditis elegans, UniProt G5EF15)
# Sequence (G5EF15 whole entry): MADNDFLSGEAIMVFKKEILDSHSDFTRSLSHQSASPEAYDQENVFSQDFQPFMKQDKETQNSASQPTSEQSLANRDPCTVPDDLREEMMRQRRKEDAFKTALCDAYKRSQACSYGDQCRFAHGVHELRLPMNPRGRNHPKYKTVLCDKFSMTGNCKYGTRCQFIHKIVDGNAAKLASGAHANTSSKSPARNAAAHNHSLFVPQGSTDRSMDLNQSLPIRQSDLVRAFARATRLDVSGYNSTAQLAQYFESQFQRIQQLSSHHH
# assay protocol: disruptors of C. elegans POS-1 RNA interaction – biochemical, fluorescence polarization, dose response (AID 1964);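 also: purified POS-1 fused to maltose binding protein made in E. coli; potency of compounds blocking POS-1 binding to fluorescent RNA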
Active and inactive are the calls of the source.
property label: EC50

compound string: Cc1cc(/C=C(/C#N)c2nc3ccccc3[nH]2)c(C)n1-c1cc(C(=O)O)cc(C(=O)O)c1
assayed target: RNA-binding protein pos-1 (Caenorhabditis elegans, UniProt G5EF15)
EC50: 59.3 µM (active)
//
compound string: Oc1ccc(/C=C/c2cc(O)cc(O)c2)cc1
assayed target: RNA-binding protein pos-1 (Caenorhabditis elegans, UniProt G5EF15)
EC50: > 300 µM (not active)

Let's switch to this compound now.
Input: For the compound O=C1C([N-]S(=O)(=O)c2cccs2)=C([n+]2ccc(CCCc3ccccc3)cc2)C(=O)c2ccccc21 , give its measured EC50 value.
Output: 119 µM (active)
